procedure_summary: CD interaction of perfume components
Type: physicochemical
Design: key: cyclodextrin-compatible perfume materials (i.e. having weak CD interaction); cyclodextrin-incompatible enduring (hydrophobic) perfume materials (i.e. having significant or strong CD interaction); cyclodextrin-incompatible enduring (hydrophobic) perfume materials (i.e. having significant or strong CD interaction)
measurement_setup: perfume component with cyclodextrin
observation_type: CD interaction

[
  {
    "compound": "CCCCCCOC(=O)c1ccccc1O [Hexyl Salicylate]",
    "CD interaction": "weak"
  },
  {
    "compound": "CCCCCCCCCCCCCC(=O)OC(C)C [Iso-propyl Myristate]",
    "CD interaction": "weak"
  },
  {
    "compound": "CCOC(=O)c1ccccc1C(=O)OCC [Diethyl Phthalate]",
    "CD interaction": "weak"
  },
  {
    "compound": "CC(C=O)Cc1ccc(C(C)(C)C)cc1 (stereo not shown)",
    "CD interaction": "strong"
  },
  {
    "compound": "CC1COCc2cc3c(cc21)C(C)(C)C(C)C3(C)C (stereo not shown) [Galaxolide]",
    "CD interaction": "weak"
  }
]

Moving on to the next compound.
Enquiry: Give its CD interaction value. Item: CC(C=O)Cc1ccc(C(C)C)cc1 (stereo not shown)
Return: strong

Entry source: patent US20020010154A1
